# System Tested: Human Glucokinase (Homo sapiens, UniProt P35557)
# Construct: Full-length human hepatic GK (untagged) was expressed; made in house; host or cells: E. coli BL21 STAR (DE3)pLysS
# Sequence (P35557 1-466 isoform P35557-2): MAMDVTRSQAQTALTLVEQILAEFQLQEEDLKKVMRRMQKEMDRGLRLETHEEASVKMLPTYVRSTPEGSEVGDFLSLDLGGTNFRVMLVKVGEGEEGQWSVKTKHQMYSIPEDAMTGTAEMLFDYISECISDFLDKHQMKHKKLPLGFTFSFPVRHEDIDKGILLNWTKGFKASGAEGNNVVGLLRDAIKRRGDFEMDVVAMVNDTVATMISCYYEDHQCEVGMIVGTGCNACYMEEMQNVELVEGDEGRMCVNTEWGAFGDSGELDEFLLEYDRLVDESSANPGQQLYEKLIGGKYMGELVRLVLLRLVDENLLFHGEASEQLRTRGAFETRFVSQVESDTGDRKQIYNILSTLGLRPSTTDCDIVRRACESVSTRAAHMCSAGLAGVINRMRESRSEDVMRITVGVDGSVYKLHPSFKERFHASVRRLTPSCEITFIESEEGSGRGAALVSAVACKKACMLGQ
# Protocol Summary: Glucokinase tandem enzymatic assay
# Type: biochemical
# Experimental Conditions: 12 mM glucose
Reported Property: EC50 (nM)
Numbers only, in nM.

Worked set:
Molecule: CCOP(=O)(Cc1csc(Nc2ncnc3ccc(OC(C)C)cc23)n1)OCC [Example 2]
Measured Value: 136
--
Molecule: CCOP(C)(=O)Cc1csc(Nc2ncnc3ccc(OC(CF)CF)cc23)n1 (racemic) [Example 6]
Measured Value: 390

Give me EC50 for each of these molecules, listed below.
1. CCOP(C)(=O)Cn1ccc(Nc2ncnc3ccc(OC(C)C)cc23)n1 (racemic) [Example 3]
2. CCOP(=O)(Cc1csc(Nc2ncnc3ccc(OC(CF)CF)cc23)n1)OCC [Example 1]

810
91
